TARGET SYSTEM: IRAK4 (Homo sapiens (Human), UniProt Q9NWZ3)
Sequence (Q9NWZ3 whole entry): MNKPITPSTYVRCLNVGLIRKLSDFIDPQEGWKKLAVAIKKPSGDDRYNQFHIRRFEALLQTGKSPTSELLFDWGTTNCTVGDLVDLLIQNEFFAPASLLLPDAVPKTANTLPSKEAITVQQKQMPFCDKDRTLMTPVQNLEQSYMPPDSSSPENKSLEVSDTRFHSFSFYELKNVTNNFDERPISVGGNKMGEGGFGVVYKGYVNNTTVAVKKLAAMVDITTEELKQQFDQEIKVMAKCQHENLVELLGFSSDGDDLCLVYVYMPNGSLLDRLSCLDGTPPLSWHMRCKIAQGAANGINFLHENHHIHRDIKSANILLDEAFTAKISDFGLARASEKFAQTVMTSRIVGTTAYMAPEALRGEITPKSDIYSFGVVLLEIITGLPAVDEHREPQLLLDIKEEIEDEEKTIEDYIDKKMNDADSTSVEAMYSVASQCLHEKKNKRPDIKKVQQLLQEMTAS
ASSAY INFO: IRAK4 kinase activity, IMAP fluorescence polarization assay
Assay type: biochemical
MEASUREMENT PARAMETERS: 100 μM ATP, 0.5 nM GST tagged IRAK4; read-out: IRAK4 IC50
Catalogue of compounds with associated pIC50
// pIC50 is dimensionless: -log10 of concentration (M)

The following compounds have reported results that may help.
>  <COMPOUND>
CS(=O)(=O)N1CC2(CN(c3nc(N[C@@H]4C[C@H](CO)[C@@H](O)[C@H]4O)c(-c4nc5ccccc5s4)c(=O)[nH]3)C2)C1 [Example 14]

>  <pIC50>
8.25

$$$$
>  <COMPOUND>
O=c1[nH]c(NC2CCCCC2)nc(N[C@@H]2C[C@H](CO)[C@@H](O)[C@H]2O)c1-c1nc2ccccc2s1 [Example 6]

>  <pIC50>
6.20

$$$$
>  <COMPOUND>
CC(C)[C@H]1C[C@@H](Nc2nc[nH]c(=O)c2-c2nc3ccccc3s2)[C@H](O)[C@@H]1O [Example 43]

>  <pIC50>
6.07

$$$$

Item O=c1[nH]c(N2CCCCC2)nc(N[C@@H]2CCCNC2)c1-c1ccc2ccccc2n1 [Example 115] was tested on IRAK4 (Homo sapiens (Human), UniProt Q9NWZ3); the reported pIC50 is 7.27
